Where do these numbers come from? They come from ChEMBL document CHEMBL1150204.

Test system: L1210
Assay: Cytotoxicity against mouse L1210 cells
Format: functional, cell-based
Give measured IC50 for each item. Keep answers brief.

Q: Consider the compound shown here: C/C=C(\C)C(=O)NCC(OC(=O)CCCCCCC/C=C/CCCCCCCC)C1=CC(=O)c2nccc3c2c1nc1ccccc13 (stereo unspecified) [CYSTODYTIN I] What is its recorded IC50?
Ans: 0.08 µg/mL

Q: Consider the compound shown here: CC(C)=CC(=O)NCC(O)C1=CC(=O)c2nccc3c2c1nc1ccccc13 (stereo unspecified) [CYSTODYTIN D] What is its recorded IC50?
Ans: 1.1 µg/mL

Q: Consider the compound shown here: CCCCCCCC/C=C/CCCCCCCC(=O)OC(CNC(=O)C=C(C)C)C1=CC(=O)c2nccc3c2c1nc1ccccc13 (stereo unspecified) [CYSTODYTIN H] What is its recorded IC50?
Ans: 0.08 µg/mL

Q: Consider the compound shown here: COC(CNC(=O)C=C(C)C)C1=CC(=O)c2nccc3c2c1nc1ccccc13 (stereo unspecified) [CYSTODYTIN F] What is its recorded IC50?
Ans: 0.068 µg/mL

Q: Consider the compound shown here: C/C=C(\C)C(=O)NCC(OC)C1=CC(=O)c2nccc3c2c1nc1ccccc13 (stereo unspecified) [CYSTODYTIN G] What is its recorded IC50?
Ans: 0.068 µg/mL

Q: Consider the compound shown here: C/C=C(\C)C(=O)NCC(O)C1=CC(=O)c2nccc3c2c1nc1ccccc13 (stereo unspecified) [CYSTODYTIN E] What is its recorded IC50?
Ans: 1.1 µg/mL
